Reference for the values: patent US10407467B2

- Test system: Klebsiella pneumoniae
- TEST DETAILS: MIC, compound in combination with a second agent (broth microdilution)
- Assay type: cell-based
- CONDITION LABEL: 1:1 (wt:wt) combination with Rifampicin; MIC = total drug concentration; strain CCUG-59348
Where a name gives a salt, the structure may show the parent alone. Bridge positions count the residues as written; N and C are the ends. Square brackets hold non-standard residues; d marks the D form. Peptide text beside a SMILES is read from it. ξ: configuration not given here. Thr(3ξ) = CC(O)[C@H](N)C(=O)O; Dab = NCC[C@H](N)C(=O)O; Inp = O=C(O)C1CCNCC1; Ahx = NCCCCCC(=O)O
Param label: returns condition met when MIC K. pneumoniae CCUG-59348 < 2 micrograms/mL, returns condition not met otherwise, including exact equality.

## Task I wonder whether CC(C)C[C@@H]1NC(=O)[C@@H](Cc2ccccc2)NC(=O)[C@H](CCN)NC(=O)[C@@H](NC(=O)[C@H](CCCCN)NC(=O)[C@@H](NC(=O)C2CCNCC2)C(C)O)CCNC(=O)[C@H](C(C)O)NC(=O)[C@H](CCN)NC(=O)[C@H](CCN)NC1=O (some centres unmarked) [Example 51, TFA salt] (H-[Inp][Thr(3ξ)]K[Dab][Dab][dF]L[Dab][Dab][Thr(3ξ)]; lactam 4-C) has MIC K. pneumoniae CCUG-59348 below 2 micrograms/mL. Can you tell?
## Result condition not met

## Task I wonder whether CC(C)C[C@@H]1NC(=O)[C@@H](Cc2ccccc2)NC(=O)[C@H](CCN)NC(=O)[C@@H](NC(=O)[C@H](CCN)NC(=O)[C@@H](NC(=O)CCCCCN)C(C)O)CCNC(=O)[C@H](C(C)O)NC(=O)[C@H](CCN)NC(=O)[C@H](CCN)NC1=O (some centres unmarked) [Example 2, 6-Aminohexanoyl polymyxin B nonapeptide] (H-[Ahx][Thr(3ξ)][Dab][Dab][Dab][dF]L[Dab][Dab][Thr(3ξ)]; lactam 4-C) has MIC K. pneumoniae CCUG-59348 below 2 micrograms/mL. Can you tell?
## Result condition not met

====

- Tested on: Acinetobacter baumannii
- TEST DETAILS: MIC, compound in combination with a second agent (broth microdilution)
- Assay type: cell-based
- CONDITION LABEL: 1:1 (wt:wt) combination with Rifampicin; MIC = total drug concentration; strain CCUG57249
Counter-ions that a name gives are not always drawn. Numbered stars: 1 amine (or outer) side, 2 acyl side, 3 side chain; on linkers, the order of the positions; unused ones are H or OH. Bridge positions count the residues as written; N and C are the ends. Square brackets hold non-standard residues; d marks the D form. Peptide text beside a SMILES is read from it. * marks the point of attachment. ξ: configuration not given here. ξHexahydromandeloyl = O=C(C(O)C1CCCCC1)*; ξβ3hPhg = O=C(CC(N[*:1])c1ccccc1)[*:2]; ξβ3hGly(cHex) = NC(CC(=O)*)C1CCCCC1; X8 = N[C@@H]1CC[C@H](C(=O)*)C1; Thr(3ξ) = CC(O)[C@H](N)C(=O)O; X5 = O=C(C[C@@H]1CCCCN1)*; Octanoyl = CCCCCCCC(=O)*; Dab = NCC[C@H](N)C(=O)O; X1 = CCCCCCC(O)C(=O)*; Inp = O=C(O)C1CCNCC1; X4 = NC1CCCC1C(=O)*
ASSAY METRIC: MIC A. baumannii CCUG57249

Check out these entries, answers already filled in.
MOLECULE: CCCCCCC(O)C(=O)N[C@H](C(=O)N[C@@H](CCN)C(=O)N[C@H]1CCNC(=O)[C@H]([C@@H](C)O)NC(=O)[C@H](CCN)NC(=O)[C@H](CCN)NC(=O)[C@H](CC(C)C)NC(=O)[C@@H](Cc2ccccc2)NC(=O)[C@H](CCN)NC1=O)[C@@H](C)O (some centres unmarked) [Example 1] (X1-T[Dab][Dab][Dab][dF]L[Dab][Dab]T; lactam 3-C)
TGT: Acinetobacter baumannii
ASSAY METRIC: MIC A. baumannii CCUG57249
MEAS VALUE: 0.25 micrograms/mL
--
MOLECULE: CC(C)C[C@@H]1NC(=O)[C@@H](Cc2ccccc2)NC(=O)[C@H](CCN)NC(=O)[C@@H](NC(=O)[C@@H](CO)NC(=O)[C@@H](NC(=O)C(O)C2CCCCC2)C(C)O)CCNC(=O)[C@H](C(C)O)NC(=O)[C@H](CCN)NC(=O)[C@H](CCN)NC1=O (some centres unmarked) [Example 46, TFA salt] (ξHexahydromandeloyl-[Thr(3ξ)][dS][Dab][Dab][dF]L[Dab][Dab][Thr(3ξ)]; lactam 3-C)
TGT: Acinetobacter baumannii
ASSAY METRIC: MIC A. baumannii CCUG57249
MEAS VALUE: 0.125 micrograms/mL
--
MOLECULE: CC(C)C[C@@H]1NC(=O)[C@@H](Cc2ccccc2)NC(=O)[C@H](CCN)NC(=O)[C@@H](NC(=O)[C@H](CCN)NC(=O)[C@@H](NC(=O)C[C@@H]2CCCCN2)C(C)O)CCNC(=O)[C@H](C(C)O)NC(=O)[C@H](CCN)NC(=O)[C@H](CCN)NC1=O (some centres unmarked) [Example 33, trifluoroacetate salt] (X5-[Thr(3ξ)][Dab][Dab][Dab][dF]L[Dab][Dab][Thr(3ξ)]; lactam 3-C)
TGT: Acinetobacter baumannii
ASSAY METRIC: MIC A. baumannii CCUG57249
MEAS VALUE: ≤0.06 micrograms/mL
--
MOLECULE: CC(C)C[C@@H]1NC(=O)[C@@H](Cc2ccccc2)NC(=O)[C@H](CCN)NC(=O)[C@@H](NC(=O)[C@H](CCN)NC(=O)[C@@H](NC(=O)[C@H]2CC[C@@H](N)C2)C(C)O)CCNC(=O)[C@H](C(C)O)NC(=O)[C@H](CCN)NC(=O)[C@H](CCN)NC1=O (some centres unmarked) [Example 34A, trifluoroacetate salt] (X8-[Thr(3ξ)][Dab][Dab][Dab][dF]L[Dab][Dab][Thr(3ξ)]; lactam 3-C)
TGT: Acinetobacter baumannii
ASSAY METRIC: MIC A. baumannii CCUG57249
MEAS VALUE: ≤0.06 micrograms/mL
--
MOLECULE: CC(C)C[C@@H]1NC(=O)[C@@H](Cc2ccccc2)NC(=O)[C@H](CCN)NC(=O)[C@@H](NC(=O)[C@H](CCN)NC(=O)[C@@H](NC(=O)[C@H](CCN)NC(=O)CC(N)C2CCCCC2)C(C)O)CCNC(=O)[C@H](C(C)O)NC(=O)[C@H](CCN)NC(=O)[C@H](CCN)NC1=O (mixture of isomers) [Example 39, trifluoroacetate salt]
TGT: Acinetobacter baumannii
ASSAY METRIC: MIC A. baumannii CCUG57249
MEAS VALUE: ≤0.06 micrograms/mL
--
MOLECULE: CC(C)C[C@@H]1NC(=O)[C@@H](Cc2ccccc2)NC(=O)[C@H](CCN)NC(=O)[C@@H](NC(=O)[C@@H](CO)NC(=O)[C@@H](NC(=O)CC(N)C2CCCCC2)[C@@H](C)O)CCNC(=O)[C@H](C(C)O)NC(=O)[C@H](CCN)NC(=O)[C@H](CCN)NC1=O (stereo partly drawn) [Example 48, TFA salt] ({ξβ3hGly(cHex)}-T[dS][Dab][Dab][dF]L[Dab][Dab][Thr(3ξ)]; lactam 3-C)
TGT: Acinetobacter baumannii
ASSAY METRIC: MIC A. baumannii CCUG57249
MEAS VALUE: ≤0.06 micrograms/mL
--
MOLECULE: CC(C)C[C@@H]1NC(=O)[C@@H](Cc2ccccc2)NC(=O)[C@H](CCN)NC(=O)[C@@H](NC(=O)[C@H](CCN)NC(=O)[C@@H](NC(=O)C2CCNCC2)C(C)O)CCNC(=O)[C@H](C(C)O)NC(=O)[C@H](CCN)NC(=O)[C@H](CCN)NC1=O (some centres unmarked) [Example 29] (H-[Inp][Thr(3ξ)][Dab][Dab][Dab][dF]L[Dab][Dab][Thr(3ξ)]; lactam 4-C)
TGT: Acinetobacter baumannii
ASSAY METRIC: MIC A. baumannii CCUG57249
MEAS VALUE: 0.125 micrograms/mL
--
MOLECULE: CC(C)C[C@@H]1NC(=O)[C@@H](Cc2ccccc2)NC(=O)[C@H](CCN)NC(=O)[C@@H](NC(=O)[C@@H](CO)NC(=O)[C@@H](NC(=O)C2CCCC2N)C(C)O)CCNC(=O)[C@H](C(C)O)NC(=O)[C@H](CCN)NC(=O)[C@H](CCN)NC1=O (some centres unmarked) [Example 44, TFA salt] (X4-[Thr(3ξ)][dS][Dab][Dab][dF]L[Dab][Dab][Thr(3ξ)]; lactam 3-C)
TGT: Acinetobacter baumannii
ASSAY METRIC: MIC A. baumannii CCUG57249
MEAS VALUE: 0.125 micrograms/mL

// recorded MIC A. baumannii CCUG57249 for CCCCCCCC(=O)N[C@H](C(=O)N[C@H](CO)C(=O)N[C@H]1CCNC(=O)[C@H](C(C)O)NC(=O)[C@H](CCN)NC(=O)[C@H](CCN)NC(=O)[C@H](CC(C)C)NC(=O)[C@@H](Cc2ccccc2)NC(=O)[C@H](CCN)NC1=O)C(C)O (some centres unmarked) [Example C1, NAB-739 TFA salt, reference compound] (Octanoyl-[Thr(3ξ)][dS][Dab][Dab][dF]L[Dab][Dab][Thr(3ξ)]; lactam 3-C) : 0.5 micrograms/mL

// recorded MIC A. baumannii CCUG57249 for CC(C)C[C@@H]1NC(=O)[C@@H](Cc2ccccc2)NC(=O)[C@H](CCN)NC(=O)[C@@H](NC(=O)[C@H](CCN)NC(=O)[C@@H](NC(=O)CC(N)c2ccccc2)C(C)O)CCNC(=O)[C@H](C(C)O)NC(=O)[C@H](CCN)NC(=O)[C@H](CCN)NC1=O (stereo partly drawn) [Example 28] (ξβ3hPhg-[Thr(3ξ)][Dab][Dab][Dab][dF]L[Dab][Dab][Thr(3ξ)]; lactam 3-C) : 0.125 micrograms/mL

// recorded MIC A. baumannii CCUG57249 for CC(C)C[C@@H]1NC(=O)[C@@H](Cc2ccccc2)NC(=O)[C@H](CCN)NC(=O)[C@@H](NC(=O)[C@H](CCCCN)NC(=O)[C@@H](NC(=O)C2CCNCC2)C(C)O)CCNC(=O)[C@H](C(C)O)NC(=O)[C@H](CCN)NC(=O)[C@H](CCN)NC1=O (some centres unmarked) [Example 51, TFA salt] (H-[Inp][Thr(3ξ)]K[Dab][Dab][dF]L[Dab][Dab][Thr(3ξ)]; lactam 4-C) : ≤0.06 micrograms/mL
